experiment: qHTS for identification of novel therapeutic agents for treatment of microphthalmiaassociated transcription factor (MiT) renal cell carcinoma (RCC) (AID 1963991); conditions: TFE3-RCC UOK109 viability, CellTiter-Glo, 48 h; measured here: UOK109 Z-AUC; stronger effect = lower value;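 also: curves scaled with 100% = DMSO viability and 0% = empty wells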
Results filed as inconclusive are left out. Positions of bridges follow the written chain, without caps; N, C: chain ends. Non-standard residues stand in square brackets, D forms with d. Residues, ends and D or L forms follow the SMILES beside them. ξ: configuration not given here. *: point of attachment. Octanoyl(6-Me) = CCC(C)CCCCC(=O)*; ξThr(3R) = C[C@@H](O)C(N)C(=O)O; dDab = NCC[C@@H](N)C(=O)O; Dab = NCC[C@H](N)C(=O)O
Can you tell me z-score for the items I'm about to list?

Look over these answered cases.
| Compound | z-score |
| --- | --- |
| O=C1c2cccc(O)c2C(=O)c2c(O)cc(CO)cc21 | 0.181 |
| CC(=O)[C@]1(O)Cc2c(O)c3c(c(O)c2[C@@H](O[C@H]2C[C@H](N)[C@@H](O)[C@H](C)O2)C1)C(=O)c1ccccc1C3=O | -1.95 |
| C[C@H]1O[C@H](O[C@H]2[C@H](O)[C@@H](O)[C@@H](O[C@H]3[C@H](O)[C@@H](O)C(O)O[C@H]3CO)O[C@H]2CO)[C@H](O)[C@@H](O)[C@H]1N[C@H]1C=C(CO)[C@@H](O)[C@H](O)[C@@H]1O (stereo partly drawn) | 0.975 |
| COc1cc(OC)c(NC(=O)Nc2cc(C)on2)cc1Cl | 0.422 |
| COc1ccc(Nc2cc(-c3cnc(N)nc3)nc(N3CCOCC3)n2)cn1 | -1.16 |
| CCC(C)CCCCC(=O)N[C@@H](CCN)C(=O)NC(C(=O)N[C@H](CCN)C(=O)N[C@@H]1CCNC(=O)C([C@@H](C)O)NC(=O)[C@@H](CCN)NC(=O)[C@@H](CCN)NC(=O)[C@@H](CC(C)C)NC(=O)[C@H](Cc2ccccc2)NC(=O)[C@H](CCN)NC1=O)[C@@H](C)O (stereo partly drawn) ({Octanoyl(6-Me)}-[Dab][ξThr(3R)][dDab][dDab][Dab]F[dL][dDab][dDab][ξThr(3R)]; lactam 4-C) | 0.782 |
| Cc1ccccc1C(=O)Nc1ccc(C(=O)N2CCCC(O)c3cc(Cl)ccc32)c(C)c1 (stereo not drawn) | -0.031 |
| O=C(O)C=Cc1ccc(Cn2ccnc2)cc1 | 0.607 |
| CC(C)C[C@H](NC(=O)[C@@H](NC(=O)c1cccc(-c2ccccc2)n1)[C@@H](C)O)B(O)O | -1.47 |
| CC(C)(O)[C@H]1CC[C@@](C)([C@H]2[C@@H](O)C[C@@]3(C)[C@@H]4C[C@H](O[C@@H]5O[C@H](CO)[C@@H](O)[C@H](O)[C@@H]5O)[C@H]5C(C)(C)[C@@H](O[C@@H]6OC[C@@H](O)[C@H](O)[C@@H]6O)CC[C@@]56C[C@@]46CC[C@]23C)O1 | 0.913 |

Required: z-score, one value per compound below.
1. C[C@H](O)[C@@H]1C(=O)N2C(C(=O)O)=C(S[C@@H]3CN[C@H](CNS(N)(=O)=O)C3)[C@@H](C)[C@@H]12
2. CN(N=O)C(=O)N[C@H]1C(O)OC(CO)[C@@H](O)[C@H]1O (stereo partly drawn)
3. CCOc1cc2ncc(C#N)c(Nc3ccc(OCc4ccccn4)c(Cl)c3)c2cc1NC(=O)C=CCN(C)C

Output:
1. -0.714
2. 0.19
3. -2.6
